- test_system: Cholecystokinin receptor type A (Homo sapiens, UniProt P32238); also: assay procedure not described here
- Sequence (P32238 whole entry): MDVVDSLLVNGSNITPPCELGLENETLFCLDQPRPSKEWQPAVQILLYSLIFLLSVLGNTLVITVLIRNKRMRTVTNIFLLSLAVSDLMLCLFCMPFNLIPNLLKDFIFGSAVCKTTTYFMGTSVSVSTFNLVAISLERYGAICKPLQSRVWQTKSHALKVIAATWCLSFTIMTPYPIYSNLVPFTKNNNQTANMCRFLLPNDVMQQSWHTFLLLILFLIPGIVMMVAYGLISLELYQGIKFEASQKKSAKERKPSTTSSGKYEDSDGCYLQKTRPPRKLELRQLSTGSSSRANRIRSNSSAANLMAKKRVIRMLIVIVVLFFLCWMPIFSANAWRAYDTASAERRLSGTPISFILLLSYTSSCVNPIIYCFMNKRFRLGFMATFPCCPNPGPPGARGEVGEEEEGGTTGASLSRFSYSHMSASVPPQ
Can you tell me AC50 for the items I'm about to list?

>  <compound>
COc1ccc(C(=O)NCc2ccc(OCCN(C)C)cc2)cc1OC [ITOPRIDE]

>  <test_system>
Cholecystokinin receptor type A (Homo sapiens, UniProt P32238); also: assay procedure not described here

>  <experimental_readout>
AC50

>  <result>
> 30 µM

$$$$
>  <compound>
CC(=O)OCC(=O)[C@@]12OC3(CCCC3)O[C@@H]1C[C@H]1[C@@H]3CCC4=CC(=O)C=C[C@]4(C)[C@@]3(F)[C@@H](O)C[C@@]12C [AMCINONIDE]

>  <test_system>
Cholecystokinin receptor type A (Homo sapiens, UniProt P32238); also: assay procedure not described here

>  <experimental_readout>
AC50

>  <result>
> 10 µM

$$$$
>  <compound>
CN1CCN(C(=O)OC2c3nccnc3C(=O)N2c2ccc(Cl)cn2)CC1 (configuration not stated)

>  <test_system>
Cholecystokinin receptor type A (Homo sapiens, UniProt P32238); also: assay procedure not described here

>  <experimental_readout>
AC50

>  <result>
> 30 µM

$$$$
>  <compound>
C=C1CC[C@@]2(O)[C@H]3Cc4ccc(O)c5c4[C@@]2(CCN3CC2CC2)[C@H]1O5

>  <test_system>
Cholecystokinin receptor type A (Homo sapiens, UniProt P32238); also: assay procedure not described here

>  <experimental_readout>
AC50

>  <result>
> 30 µM

$$$$
>  <compound>
COc1ccc(C(=O)N2CCN(c3ccc4c(c3)CCC(=O)N4)CC2)cc1OC

>  <test_system>
Cholecystokinin receptor type A (Homo sapiens, UniProt P32238); also: assay procedure not described here

>  <experimental_readout>
AC50

>  <result>
> 30 µM

$$$$

# batch: return AC50 for each of the 8 compounds below
1. CCC1(C2=CCCCCC2)C(=O)NC(=O)NC1=O
2. Cc1cccc(C)c1NC(=O)C1CCCCN1C (configuration not stated) [MEPIVACAINE]
3. COC(=O)[C@@H]1CC2=CC(=O)CC[C@]2(C)[C@@]23O[C@@H]2C[C@@]2(C)[C@@H](CC[C@@]24CCC(=O)O4)[C@H]13
4. CC(=O)O[C@]1(C(C)=O)CC[C@H]2[C@@H]3C[C@H](C)C4=CC(=O)CC[C@]4(C)[C@H]3CC[C@@]21C [MEDROXYPROGESTERONE ACETATE]
5. CN(CCCN1c2ccccc2CCc2ccccc21)CC(=O)c1ccc(Cl)cc1
6. CC(C)[N+](C)(CCC(C(N)=O)(c1ccccc1)c1ccccc1)C(C)C [ISOPROPAMIDE]
7. COc1c(N2CCNC(C)C2)c(F)cc2c(=O)c(C(=O)O)cn(C3CC3)c12 (configuration not stated)
8. C[C@]12CCC(=O)C=C1CC[C@@H]1[C@@H]2CC[C@@]2(C)[C@H]1CC[C@]2(C)O

// result
1: > 10 µM; 2: > 30 µM; 3: > 30 µM; 4: > 30 µM; 5: > 30 µM; 6: > 10 µM; 7: > 10 µM; 8: > 30 µM

# batch: return AC50 for each of the 4 compounds below
1. C[N+](C)(C)CC(=O)O
2. Cc1cc2c(OCC(CNC(C)(C)C)OC(=O)c3ccccc3)cccc2[nH]1 (configuration not stated)
3. O=C(CCCCC(=O)Nc1c(I)cc(I)c(C(=O)O)c1I)Nc1c(I)cc(I)c(C(=O)O)c1I [IODIPAMIDE]
4. NC1=NC(=O)C(c2ccccc2)O1 (configuration not stated)

// result
1: > 30 µM; 2: > 30 µM; 3: > 10 µM; 4: > 30 µM

###

- test_system: Glutamate receptor ionotropic, NMDA 1 (Rattus norvegicus); also: assay procedure not described here
experimental_readout: AC50

Some compounds with known AC50 results, for comparison:
>  <compound>
CN1C(=O)CC(c2ccccc2)C1=O (configuration not stated) [PHENSUXIMIDE]

>  <AC50>
> 10 µM

$$$$
>  <compound>
O=C(O)CCCc1ccccc1 [PHENYLBUTANOIC ACID]

>  <AC50>
> 30 µM

$$$$
>  <compound>
CC/C=C\C/C=C\C/C=C\CCCCCCCC(=O)O [LINOLENIC ACID]

>  <AC50>
> 30 µM

$$$$
>  <compound>
Nc1nc(N)c2nc(-c3ccccc3)c(N)nc2n1

>  <AC50>
> 30 µM

$$$$

# batch: return AC50 for each of the 6 compounds below
1. NC1=NC(=O)C(c2ccccc2)O1 (configuration not stated) [PEMOLINE]
2. COc1ccc2c(c1)C(=O)N(CCc1ccc(S(=O)(=O)NC(=O)NC3CCCCC3)cc1)C(=O)C2(C)C [GLIQUIDONE]
3. CCC(C(=O)O)c1ccc(CC(C)C)cc1 (configuration not stated) [BUTIBUFEN]
4. COCC1=C(C(=O)OC(C)OC(=O)OC(C)C)N2C(=O)[C@@H](NC(=O)/C(=N\OC)c3csc(N)n3)[C@H]2SC1 (some centres not stated) [CEFPODOXIME PROXETIL]
5. O=C(C[S+]([O-])C(c1ccccc1)c1ccccc1)NO (configuration not stated)
6. O=C(OCCN1CCOCC1)c1cccnc1Nc1cccc(C(F)(F)F)c1 [MORNIFLUMATE]

// result
1. > 10 µM
2. > 30 µM
3. > 30 µM
4. > 30 µM
5. > 30 µM
6. > 30 µM

# batch: return AC50 for each of the 3 compounds below
1. C[C@H]1C[C@@H]2[C@H]([C@@H](O)C[C@@]3(C)[C@H]2CC[C@]3(O)C(=O)CO)[C@@]2(C)C=CC(=O)C=C12 [METHYLPREDNISOLONE]
2. CO/N=C(\C(=O)N[C@@H]1C(=O)N2C(C(=O)[O-])=C(C[N+]3(C)CCCC3)CS[C@H]12)c1csc(N)n1
3. N/N=c1/cc2c(n[nH]1)CCN(C(=O)c1ccccc1)C2 [ENDRALAZINE]

// result
["> 10 µM", "> 30 µM", "> 30 µM"]

###

Listed here: molecules with reported AC50 for Motilin receptor (Homo sapiens, UniProt O43193).

>  <molecule>
CC(=O)c1ccc2c(c1)N(CCCN1CCN(CCO)CC1)c1ccccc1S2

>  <experimental_readout>
AC50

>  <result>
27 µM

$$$$

# batch: return AC50 for each of the 4 molecules below
1. C=C1CC[C@@]2(O)[C@H]3Cc4ccc(O)c5c4[C@@]2(CCN3CC2CC2)[C@H]1O5
2. Cc1cccc(C)c1OCC(C)N (stereo not given)
3. CCCCN1CCCCC1C(=O)Nc1c(C)cccc1C (stereo not given)
4. CN1C(=O)COc2c(C(=O)NC3CN4CCC3CC4)cc(Cl)cc21 (stereo not given)

// result
["> 30 µM", "> 30 µM", "> 30 µM", "> 30 µM"]

###

- test_system: Bile salt export pump (Homo sapiens, UniProt O95342); also: assay procedure not described here
- Sequence (O95342 whole entry): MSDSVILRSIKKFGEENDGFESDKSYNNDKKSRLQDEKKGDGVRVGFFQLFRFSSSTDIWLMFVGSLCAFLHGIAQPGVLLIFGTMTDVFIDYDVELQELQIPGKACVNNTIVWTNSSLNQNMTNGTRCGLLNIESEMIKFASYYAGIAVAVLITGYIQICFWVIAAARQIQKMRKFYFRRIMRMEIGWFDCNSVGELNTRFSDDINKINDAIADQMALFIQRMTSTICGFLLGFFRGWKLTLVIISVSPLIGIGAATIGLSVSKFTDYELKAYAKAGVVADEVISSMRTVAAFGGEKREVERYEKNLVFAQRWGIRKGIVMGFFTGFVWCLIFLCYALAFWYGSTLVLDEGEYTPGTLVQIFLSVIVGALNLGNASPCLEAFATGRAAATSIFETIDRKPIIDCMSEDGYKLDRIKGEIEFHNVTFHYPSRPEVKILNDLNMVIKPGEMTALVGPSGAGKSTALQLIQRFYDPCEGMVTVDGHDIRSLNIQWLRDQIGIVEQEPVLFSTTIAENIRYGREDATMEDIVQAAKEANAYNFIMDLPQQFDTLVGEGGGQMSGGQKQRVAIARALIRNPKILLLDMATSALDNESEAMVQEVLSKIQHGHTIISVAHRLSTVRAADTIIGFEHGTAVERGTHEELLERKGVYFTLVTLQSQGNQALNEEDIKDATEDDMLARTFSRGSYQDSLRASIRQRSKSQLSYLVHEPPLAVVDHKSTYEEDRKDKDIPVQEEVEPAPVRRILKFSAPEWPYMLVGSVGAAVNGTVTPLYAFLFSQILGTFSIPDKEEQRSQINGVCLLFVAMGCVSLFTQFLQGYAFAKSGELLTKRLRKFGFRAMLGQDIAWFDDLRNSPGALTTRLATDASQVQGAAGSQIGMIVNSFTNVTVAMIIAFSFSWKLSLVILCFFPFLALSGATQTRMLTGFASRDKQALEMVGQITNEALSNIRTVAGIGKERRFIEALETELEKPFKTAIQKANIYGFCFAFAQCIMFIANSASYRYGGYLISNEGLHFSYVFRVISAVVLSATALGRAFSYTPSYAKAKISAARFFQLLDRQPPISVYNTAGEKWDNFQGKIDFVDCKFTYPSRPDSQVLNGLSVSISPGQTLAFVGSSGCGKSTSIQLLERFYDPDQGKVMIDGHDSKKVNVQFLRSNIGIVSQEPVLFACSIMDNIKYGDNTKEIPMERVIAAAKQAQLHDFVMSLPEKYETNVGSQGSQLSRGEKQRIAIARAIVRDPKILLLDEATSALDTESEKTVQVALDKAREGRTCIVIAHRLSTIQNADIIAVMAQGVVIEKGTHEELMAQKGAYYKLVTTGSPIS
- Format: functional
experimental_readout: AC50

Some molecules with known AC50 results, for comparison:
>  <molecule>
COC(=O)[C@@H]1CC2=CC(=O)CC[C@]2(C)[C@@]23O[C@@H]2C[C@@]2(C)[C@@H](CC[C@@]24CCC(=O)O4)[C@H]13

>  <AC50>
> 300 µM

$$$$
>  <molecule>
CC[C@H](C)C(=O)O[C@H]1C[C@H](O)C=C2C=C[C@H](C)[C@H](CC[C@@H](O)C[C@@H](O)CC(=O)O)[C@H]21

>  <AC50>
> 100 µM

$$$$
>  <molecule>
CC(N/C(=N\C#N)Nc1ccncc1)C(C)(C)C (stereo not drawn) [PINACIDIL ANHYDROUS]

>  <AC50>
290 µM

$$$$
>  <molecule>
Sc1ncnc2nc[nH]c12 [MERCAPTOPURINE ANHYDROUS]

>  <AC50>
> 300 µM

$$$$
>  <molecule>
Oc1ncnc2[nH]ncc12

>  <AC50>
> 300 µM

$$$$
>  <molecule>
CC(=O)OCC(=O)[C@@]1(O)CC[C@H]2[C@@H]3CCC4=CC(=O)CC[C@]4(C)[C@H]3C(=O)C[C@@]21C [CORTISONE ACETATE]

>  <AC50>
> 300 µM

$$$$
>  <molecule>
CC(C(=O)O)c1ccc(N2CC=CC2)c(Cl)c1 (stereo not drawn)

>  <AC50>
270 µM

$$$$

// below: AC50 requested for another molecule
// query What does the data say about its AC50? Entry: `CC(C)OC(=O)[C@H](C)N[P@](=O)(OC[C@H]1O[C@@H](n2ccc(=O)[nH]c2=O)[C@](C)(F)[C@@H]1O)Oc1ccccc1`
// result 270 µM
